Cited source for all entries: ChEMBL document CHEMBL3784933

assay-info: Cytotoxicity against human BT549 cells assessed as growth inhibition at 10 uM after 48 hrs by SRB assay
Assay type: functional
condition-summary: BT-549, 48 h, read-out: GI
Consider the following compounds; for each one, report its inhibition of growth at 10 µM.
Report as a plain number; the unit % is understood.

Query: inhibition of growth at 10 µM; subject: `COc1cc(NC(=O)CSc2nc3ccc(C)cc3c(=O)n2-c2ccccc2)cc(OC)c1OC` 21

Let us now turn to `COc1cc(NC(=O)CCSc2nc3ccccc3c(=O)n2-c2ccc(F)cc2)cc(OC)c1OC` 28

Same lookup for `COc1cc(NC(=O)CCSc2nc3ccc(Cl)cc3c(=O)n2-c2ccc(F)cc2)cc(OC)c1OC` , please. 12

Another compound to check: `COc1cc2nc(SCC(=O)Nc3cc(OC)c(OC)c(OC)c3)n(-c3ccccc3)c(=O)c2cc1OC` 13

# iterate: `COc1cc(NC(=O)CCSc2nc3ccc(C)cc3c(=O)n2-c2ccccc2)cc(OC)c1OC` 12

Quick one: `COc1cc(NC(=O)CSc2nc3ccc(Cl)cc3c(=O)n2-c2ccccc2)cc(OC)c1OC` 22

* * *

System: A549
assay-info: Cytotoxicity against human A549 cells assessed as growth inhibition at 10 uM after 48 hrs by SRB assay
Assay type: functional
condition-summary: A549, 48 h, read-out: GI
Consider the following molecules; for each one, report its inhibition of growth at 10 µM.
Please respond with the number in % and leave the unit unwritten.

What value of inhibition of growth at 10 µM has been recorded for this entry: `COc1cc(NC(=O)CCSc2nc3ccccc3c(=O)n2-c2ccccc2)cc(OC)c1OC` 15

Also `COc1cc2nc(SCC(=O)Nc3cc(OC)c(OC)c(OC)c3)n(-c3ccccc3)c(=O)c2cc1OC` ? 14

And the next one, `COc1cc(NC(=O)CSc2nc3ccc(Cl)cc3c(=O)n2-c2ccc(F)cc2)cc(OC)c1OC` ? 17

And for `COc1cc(NC(=O)CSc2nc3ccc(C)cc3c(=O)n2-c2ccccc2)cc(OC)c1OC` ? 17

Also need `COc1cc(NC(=O)CCSc2nc3ccccc3c(=O)n2-c2ccc(F)cc2)cc(OC)c1OC` , thanks. 28

Moving on to the next molecule: `COc1cc2nc(SCCC(=O)Nc3cc(OC)c(OC)c(OC)c3)n(-c3ccccc3)c(=O)c2cc1OC` 14

Repeat with `COc1cc(NC(=O)CSc2nc3ccc(Cl)cc3c(=O)n2-c2ccccc2)cc(OC)c1OC` 12

Subsequent entry: `COc1cc(NC(=O)CCSc2nc3ccc(Cl)cc3c(=O)n2-c2ccc(F)cc2)cc(OC)c1OC` 28

What about `COc1cc(NC(=O)CCSc2nc3ccc(C)cc3c(=O)n2-c2ccccc2)cc(OC)c1OC` ? 15

* * *

assay-info: Cytotoxicity against human PC3 cells assessed as growth inhibition at 10 uM after 48 hrs by SRB assay
Type: functional
condition-summary: PC-3, 48 h, read-out: GI
Could you please report measured inhibition of growth at 10 µM for the items listed next?
Express it in %; write the number only.

Would you kindly share the measured inhibition of growth at 10 µM for `COc1cc(NC(=O)CCSc2nc3ccc(Cl)cc3c(=O)n2-c2ccc(F)cc2)cc(OC)c1OC` ? 51

Same lookup for `COc1cc(NC(=O)CSc2nc3ccccc3c(=O)n2-c2ccccc2)cc(OC)c1OC` , please. 15

Request: `COc1cc(NC(=O)CSc2nc3ccc(Cl)cc3c(=O)n2-c2ccc(F)cc2)cc(OC)c1OC` 27

Entry to check: `COc1cc2nc(SCCC(=O)Nc3cc(OC)c(OC)c(OC)c3)n(-c3ccccc3)c(=O)c2cc1OC` 18

Can you check `COc1cc2nc(SCC(=O)Nc3cc(OC)c(OC)c(OC)c3)n(-c3ccccc3)c(=O)c2cc1OC` next? 17

What do you get for `COc1cc(NC(=O)CCSc2nc3ccccc3c(=O)n2-c2ccc(F)cc2)cc(OC)c1OC` ? 25

And what about the molecule `COc1cc(NC(=O)CSc2nc3ccc(Cl)cc3c(=O)n2-c2ccccc2)cc(OC)c1OC` ? 20

Would you kindly repeat that for `COc1cc(NC(=O)CCSc2nc3ccc(C)cc3c(=O)n2-c2ccccc2)cc(OC)c1OC` ? 36

For `COc1cc(NC(=O)CCSc2nc3ccccc3c(=O)n2-c2ccccc2)cc(OC)c1OC` then? 39

Next molecule up: `COc1cc(NC(=O)CSc2nc3ccc(C)cc3c(=O)n2-c2ccccc2)cc(OC)c1OC` 18

* * *

assay-info: Cytotoxicity against human SNB19 cells assessed as growth inhibition at 10 uM after 48 hrs by SRB assay
Format: functional
condition-summary: SNB-19, 48 h, read-out: GI
observed-property: inhibition of growth at 10 µM (%)
Give just the numeric value; % need not be written.

Returns the measured inhibition of growth at 10 µM for the input molecule. Input: `COc1cc2nc(SCC(=O)Nc3cc(OC)c(OC)c(OC)c3)n(-c3ccccc3)c(=O)c2cc1OC` 17

Can you handle `COc1cc(NC(=O)CCSc2nc3ccc(C)cc3c(=O)n2-c2ccccc2)cc(OC)c1OC` next? 17

Record: `COc1cc(NC(=O)CCSc2nc3ccc(Cl)cc3c(=O)n2-c2ccc(F)cc2)cc(OC)c1OC` 15

// repeat for `COc1cc(NC(=O)CSc2nc3ccc(C)cc3c(=O)n2-c2ccccc2)cc(OC)c1OC` and report 13

Thanks! And `COc1cc(NC(=O)CCSc2nc3ccccc3c(=O)n2-c2ccc(F)cc2)cc(OC)c1OC` ? 32

How about `COc1cc(NC(=O)CSc2nc3ccc(Cl)cc3c(=O)n2-c2ccc(F)cc2)cc(OC)c1OC` ? 18

* * *

Tested on: SK-MEL-5
assay-info: Cytotoxicity against human SK-MEL-5 cells assessed as growth inhibition at 10 uM after 48 hrs by SRB assay
Format: functional
condition-summary: SK-MEL-5, 48 h, read-out: GI
Quick rule for you: inhibition of growth at 10 µM at 20% or higher means true (1), lower means false (0).

Reported inhibition of growth at 10 µM at or above 20%? `COc1cc(NC(=O)CSc2nc3ccc(C)cc3c(=O)n2-c2ccccc2)cc(OC)c1OC` true (1)

Note, next up: `COc1cc(NC(=O)CSc2nc3ccccc3c(=O)n2-c2ccc(F)cc2)cc(OC)c1OC` false (0)

Here is the next compound: `COc1cc(NC(=O)CSc2nc3ccc(Cl)cc3c(=O)n2-c2ccccc2)cc(OC)c1OC` false (0)

Another compound: `COc1cc(NC(=O)CSc2nc3ccc(Cl)cc3c(=O)n2-c2ccc(F)cc2)cc(OC)c1OC` true (1)

Follow-up entry: `COc1cc(NC(=O)CCSc2nc3ccccc3c(=O)n2-c2ccc(F)cc2)cc(OC)c1OC` false (0)

Next compound up: `COc1cc(NC(=O)CSc2nc3ccccc3c(=O)n2-c2ccccc2)cc(OC)c1OC` false (0)

Entry `COc1cc2nc(SCC(=O)Nc3cc(OC)c(OC)c(OC)c3)n(-c3ccccc3)c(=O)c2cc1OC` please false (0)

* * *

assay-info: Cytotoxicity against human OVCAR4 cells assessed as growth inhibition at 10 uM after 48 hrs by SRB assay
Type: functional
condition-summary: OVCAR-4, 48 h, read-out: GI
observed-property: inhibition of growth at 10 µM (%)
Write the value in % as a bare number.

# get_value(readout='inhibition of growth at 10 µM', item= `COc1cc(NC(=O)CSc2nc3ccc(Cl)cc3c(=O)n2-c2ccc(F)cc2)cc(OC)c1OC` ) 23

// query: `COc1cc(NC(=O)CSc2nc3ccc(Cl)cc3c(=O)n2-c2ccccc2)cc(OC)c1OC` 15

Subsequent entry: `COc1cc(NC(=O)CSc2nc3ccccc3c(=O)n2-c2ccccc2)cc(OC)c1OC` 12

Also, `COc1cc(NC(=O)CCSc2nc3ccccc3c(=O)n2-c2ccccc2)cc(OC)c1OC` please. 24

Next: `COc1cc(NC(=O)CCSc2nc3ccc(Cl)cc3c(=O)n2-c2ccccc2)cc(OC)c1OC` 15

Try `COc1cc(NC(=O)CSc2nc3ccc(C)cc3c(=O)n2-c2ccccc2)cc(OC)c1OC` next. 32

Proceed to `COc1cc(NC(=O)CCSc2nc3ccc(C)cc3c(=O)n2-c2ccccc2)cc(OC)c1OC` 23

Next record, please: `COc1cc(NC(=O)CCSc2nc3ccccc3c(=O)n2-c2ccc(F)cc2)cc(OC)c1OC` 104

* * *

Tested on: K562
assay-info: Cytotoxicity against human K562 cells assessed as growth inhibition at 10 uM after 48 hrs by SRB assay
Format: functional
condition-summary: K562, 48 h, read-out: GI
Record form. Attribute: inhibition of growth at 10 µM. Fill in for each entry.
Your answer should be a plain number; it is taken to be in %.

What value of inhibition of growth at 10 µM has been recorded for this entry: `COc1cc(NC(=O)CCSc2nc3ccc(Cl)cc3c(=O)n2-c2ccc(F)cc2)cc(OC)c1OC` 22

`COc1cc2nc(SCCC(=O)Nc3cc(OC)c(OC)c(OC)c3)n(-c3ccc(F)cc3)c(=O)c2cc1OC` , same question. 11

Now consider `COc1cc(NC(=O)CCSc2nc3ccccc3c(=O)n2-c2ccccc2)cc(OC)c1OC` and answer again. 31

Another molecule to check: `COc1cc(NC(=O)CSc2nc3ccc(Cl)cc3c(=O)n2-c2ccc(F)cc2)cc(OC)c1OC` 20

Now the molecule `COc1cc(NC(=O)CSc2nc3ccccc3c(=O)n2-c2ccc(F)cc2)cc(OC)c1OC` 14

Now try `COc1cc(NC(=O)CSc2nc3ccc(C)cc3c(=O)n2-c2ccccc2)cc(OC)c1OC` . 13

Next molecule: `COc1cc(NC(=O)CCSc2nc3ccc(C)cc3c(=O)n2-c2ccccc2)cc(OC)c1OC` 10
